Target: Imidazoline I Sites
Assay: [125I]p-iodoclonidine competition binding to bovine RVLM membranes, imidazoline sites
Settings: With epinephrine (α2Rs masked); read-out: Ki, Imidazoline I Sites
Readout name: pKi
Note on pKi: it is the negative log10 of concentration, concentration in mol/L.

Consider the compound shown here: O=C(O)Cc1cn(C2OC(COP(=O)(O)O)C(O)C2O)cn1 (stereo not shown) What is its recorded pKi?
7.00

---

Biological target: α2-Adrenergic Sites
Assay: [125I]p-iodoclonidine competition binding to bovine RVLM membranes, α2-adrenergic sites
Conditions: With cimetidine (I-sites masked); read-out: Ki, α2-Adrenergic Sites (low affinity sites)
Experimental: Whole bovine brains and adrenal glands were obtained from a local slaughterhouse. Brains were immediately placed on a chilled glass plate, washed with ice-cold Krebs'-Henseleit buffer, and dissected. […] Data were obtained as dpm and transferred to the Equilibrium Binding Data Analysis (EBDA) program for initial processing; 4 to 10 experiments were analyzed simultaneously by using the LIGAND program for nonlinear curve-fitting. Protein assay data were also analyzed by nonlinear curve-fitting. […]
Readout name: Ki (µM)
The response must be a number in µM with no trailing unit.

Give its Ki value. Item: O=C(O)Cc1cn(C2OC(COP(=O)(O)O)C(O)C2O)cn1 (stereo not shown) [IAA-RP]
210

---

Target: α2-Adrenergic Sites
Experiment: [125I]p-iodoclonidine competition binding to bovine RVLM membranes, α2-adrenergic sites
Details: With epinephrine (α2Rs masked); read-out: Ki, α2-Adrenergic Sites (low affinity sites)
Readout name: pKi
In textbook form, pKi equals minus log to base ten of the concentration in mol/L.

Data request, read-out pKi, for O=C(O)Cc1cn(C2OC(COP(=O)(O)O)C(O)C2O)cn1 (stereo not shown)
4.22

---

Biological target: α2-Adrenergic Sites
Test: [125I]p-iodoclonidine competition binding to bovine RVLM membranes, α2-adrenergic sites
Conditions: Control (no masking ligand); read-out: Ki, α2-Adrenergic Sites (low affinity sites)
Readout name: Ki
Write the figure, then the unit, nothing else.

Please report the recorded Ki for O=C(O)Cc1cn(C2OC(COP(=O)(O)O)C(O)C2O)cn1 (stereo not shown) .
57 µM

---

Molecular target: Imidazoline I Sites
Assay: [125I]p-iodoclonidine competition binding to bovine RVLM membranes, imidazoline sites
Conditions: Control (no masking ligand); read-out: Ki, Imidazoline I Sites
Readout name: Ki (µM)
Field: numeric (µM). Do not append units.

Given O=C(O)Cc1cn(C2OC(COP(=O)(O)O)C(O)C2O)cn1 (stereo not shown) , state its recorded Ki.
0.16

---

Target: Imidazoline I Sites
Test: [125I]p-iodoclonidine competition binding to bovine RVLM membranes, imidazoline sites
Settings: bovine RVLM membranes, [125I]PIC; read-out: K1 in RVLM, parallel assays
Readout name: Ki (µM)
Give the number; µM is assumed, so skip it.

For the compound shown here, O=C(O)Cc1cn([C@@H]2O[C@H](CO)[C@@H](O)[C@H]2O)cn1 [IAA-R] , give the reported Ki.
266

---

Test system: I3R
Test: I3R model: insulin release from rat islets of Langerhans
Format: cell-based
Conditions: rat islets, glucose 20 mM and diazoxide 200 μM
pEC50: −log10 of the molar value.
Readout name: pEC50

// query pEC50 value for entry O=C(O)Cc1cn(C2OC(COP(=O)(O)O)C(O)C2O)cn1 (stereo not shown)
7.30 to 7.52
